Molecular target: T1, ECD of murine IGSF11, recombinant biotinylated (mouse, UniProt P0C673 23-240)
T1 construct: whole entry named; also called Mouse IGSF11
T1 sequence: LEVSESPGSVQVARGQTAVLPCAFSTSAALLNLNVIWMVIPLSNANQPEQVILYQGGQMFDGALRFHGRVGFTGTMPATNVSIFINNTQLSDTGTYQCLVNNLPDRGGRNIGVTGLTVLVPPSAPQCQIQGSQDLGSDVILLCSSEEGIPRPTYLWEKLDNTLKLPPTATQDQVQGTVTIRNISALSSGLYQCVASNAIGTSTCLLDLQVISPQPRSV
Assay: ELISA RFU 0.5-1.0
measurementName: ELISA binding signal (RFU)

>>> assayvalue("A-006 (scFv format) (scFv, V domains shown, scFv) VH: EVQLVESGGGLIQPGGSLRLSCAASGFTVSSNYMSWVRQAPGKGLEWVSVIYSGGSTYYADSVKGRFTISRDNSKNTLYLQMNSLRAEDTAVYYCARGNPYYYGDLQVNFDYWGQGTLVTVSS VL: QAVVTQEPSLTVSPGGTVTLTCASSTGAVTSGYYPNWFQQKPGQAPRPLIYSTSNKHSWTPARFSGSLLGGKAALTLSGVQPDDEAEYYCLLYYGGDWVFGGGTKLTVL")
"0.5 to 1 rfu"
>>> assayvalue("A-013 (scFv format) (scFv, V domains shown, scFv) VH: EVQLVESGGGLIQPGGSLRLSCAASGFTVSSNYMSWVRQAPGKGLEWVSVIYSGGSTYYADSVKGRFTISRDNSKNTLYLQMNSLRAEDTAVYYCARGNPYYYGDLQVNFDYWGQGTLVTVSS VL: QAVVTQEPSLTVSPGGTVTLTCASSTGAVTSAYYPNWFQQKPGQAPRALIYSTSNKHSWTPARFSGSLLGGKAALTLSGVQPEDEADYYCLLYYGGAWVFGGGTKLTVL")
"0.5 to 1 rfu"

Here's the next entry for you.
Exam item: Consider the binder A-016 (scFv format) (scFv, V domains shown, scFv) VH: QVQLQESGAEVKKPGASVKVSCKASGYTFTGYYMHWVRQAPGQGLEWMGGIIPIFGTANYAQKFQGRVTITADESTSTAYMELSSLRSEDTAVYYCAGAGMELTRSGAYYYYGMDVWGQGTTVTVSS VL: QSALTQPASVSGSPGQSITISCTGTSSDIGGYTFVSWYQQHPGKAPKVMIHDVNNRPSGISNRFSGSKSGNTASLTISGLQAEDEADYYCSSVTSTNTYVFGTGTKVTVL and give its measured ELISA binding signal (RFU).
Marked response: 0.5 to 1 rfu
